Please provide measured composite Z-score for the entries that follow.
Assay: small-molecule microarray binders of probe aXIP, primary screen, biochemical, NeuroSMM set, 635/667 nm fluorescence (AID 1119);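 further: probe is the protein aXip251-270 applied at 1 µg/mL to compound-printed slides; binding of probe to printed compounds measured as 667 nm fluorescence plus signal to noise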
Conditions: higher = more signal, called active from +8 up or from −8 down
Activity calls are given as the source filed them.

What measured composite Z-score goes with CC(C)C(CO)N1C(=O)[C@@H]2C3C(=O)OCCC/C=C\[C@H]3OC23C=CCN(C(C)C)C(=O)[C@@H]13 (stereo partly specified) ? 1.77 (inactive)

What measured composite Z-score goes with `C=CCN1C(=O)[C@@]2(O[C@@H](CCO)[C@H]([Si](C)(C)c3ccc(OC)cc3)[C@H]2C)c2cc(N(C=O)c3ccccc3)ccc21` ? 0.459 (inactive)

What measured composite Z-score goes with `C=CCNC(=O)[C@@H]1[C@H]2C(=O)O[C@H](c3ccccc3)[C@H](c3ccccc3)N2[C@H](c2ccc(O)cc2)[C@@]12C(=O)N(C(=O)OCCOC)c1ccc(C#Cc3ccc(OC)cc3)cc12` ? 0.574 (inactive)

What measured composite Z-score goes with `O=C1O[C@H](c2ccccc2)[C@H](c2ccccc2)N2[C@H]1[C@@H](C(=O)Nc1nc3ccccc3s1)[C@]1(C(=O)Nc3ccc(C#CCCO)cc31)[C@H]2c1ccccc1OCCO` ? 0.231 (inactive)

What measured composite Z-score goes with `O=C1O[C@@H](c2ccccc2)[C@@H](c2ccccc2)N2[C@@H](c3ccc(OCCO)cc3)[C@]3(C(=O)Nc4ccc(C#CC5(O)CCCCCC5)cc43)[C@@H](C(=O)NC[C@H](O)c3ccccc3)[C@H]12` ? -0.363 (inactive)

What measured composite Z-score goes with `C=CCN1C(=O)[C@@]2(O[C@@H](CCn3cc(CCO)nn3)[C@H]([Si](C)(C)c3ccc(OC)cc3)[C@H]2C)c2cc(NC(=O)c3ccc(OC)cc3)ccc21` ? -0.444 (inactive)

----------
Assay: yeast growth modulation, basal conditions, primary screen, YJM789 clinical isolate, OD600, 24 h (AID 1089);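 further: growth of clinical yeast isolate S. cerevisiae YJM 789 seeded 1000 cells per well; test concentration not given here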
Conditions: S. cerevisiae YJM789 growth, higher = more signal, called active from +8 up or from −8 down
Measurement kind: z-score
Please give the numeric answer without any surrounding text.

What measured z-score goes with C=C1C=C(Br)C2(OCCCO2)[C@H]2OC12 (some centres undefined) ? -0.23

What measured z-score goes with `C=CC[C@]1(C(=O)N2CCCCC2)COC(c2ccc(OCCCO)cc2)=N1` ? -0.485

What measured z-score goes with `CCOC(=O)C[C@H]1[C@H](OC(=O)c2ccc(-c3ccccc3)cc2)[C@@H](NC(=O)c2ccccc2)c2cc(OCCCO)ccc2N1C(=O)c1ccccc1` ? -1.08

What measured z-score goes with `C=CCNC(=O)[C@@H]1[C@H]2C(=O)O[C@H](c3ccccc3)[C@H](c3ccccc3)N2[C@H](c2ccc(O)cc2)[C@@]12C(=O)N(C(=O)OCCOC)c1ccc(C#Cc3ccc(OC)cc3)cc12` ? 0.342

What measured z-score goes with `C=C(C(=O)CC[C@H](OC(C)=O)c1ccc(CO)o1)C(C)C` ? 1.01

What measured z-score goes with C=CCC(OC(C)=O)[C@@H]1[C@@H](N(Cc2ccc(-c3cccc(C(F)(F)F)c3)o2)C(=O)c2ccc(-c3ccccc3)cc2)c2cc(OCCCO)ccc2N1C(=O)Cc1ccc(OC)cc1 (some centres undefined) ? -0.933

What measured z-score goes with `C=CCNC(=O)[C@@H]1[C@H]2C(=O)O[C@H](c3ccccc3)[C@H](c3ccccc3)N2[C@H](c2ccc(O)cc2)[C@@]12C(=O)Nc1ccc(C#Cc3ccc(OC)cc3)cc12` ? -0.147

What measured z-score goes with `CC(C)(C)OC(=O)CC[C@]1(C(=O)NCc2ccccc2)N=C(c2ccc(OCCCO)cc2)O[C@H]1c1ccccc1N=[N+]=[N-]` ? -0.182

What measured z-score goes with `COc1ccc([Si](C)(C)[C@@H]2[C@@H](CC(=O)N3CCC[C@H]3CO)O[C@]3(C(=O)N(Cc4ccc(I)cc4)c4ccccc43)[C@H]2C)cc1` ? -1.41

What measured z-score goes with CCN(CC)c1ccc(N2CC=CC34O[C@@H]5C=CCOC(=O)[C@@H]5[C@H]3C(=O)N(C(CO)C(C)C)[C@@H]4C2=O)cc1 (some centres undefined) ? 1.01

What measured z-score goes with `O=c1n(-c2ccccc2)c(=O)n2n1CC(COc1ccccc1)=C1[C@@H](CCc3ccccc3)OB(O)C[C@@H]12` ? 0.173

What measured z-score goes with COC(=O)C1=CC(c2ccc(CO)cc2)=CC(C2CC2)N(C)C=C1C(=O)OC (centres undefined) ? -5.61

What measured z-score goes with `COc1ccc([Si](C)(C)[C@H]2[C@H](CC(=O)N(CCO)Cc3ccccc3)O[C@@]3(C(=O)N(Cc4ccc(N5CCC5=O)cc4)c4ccccc43)[C@@H]2C)cc1` ? 0.478

What measured z-score goes with CC(C)C(CO)N1C(=O)[C@@H]2C3C(=O)OCCC/C=C\[C@H]3OC23C=CCN(C(C)C)C(=O)[C@@H]13 (some centres undefined) ? -1.1

----------
Target: Fibroblast growth factor 2 (Homo sapiens) (UniProt P09038)
Sequence (P09038 whole entry, looked up): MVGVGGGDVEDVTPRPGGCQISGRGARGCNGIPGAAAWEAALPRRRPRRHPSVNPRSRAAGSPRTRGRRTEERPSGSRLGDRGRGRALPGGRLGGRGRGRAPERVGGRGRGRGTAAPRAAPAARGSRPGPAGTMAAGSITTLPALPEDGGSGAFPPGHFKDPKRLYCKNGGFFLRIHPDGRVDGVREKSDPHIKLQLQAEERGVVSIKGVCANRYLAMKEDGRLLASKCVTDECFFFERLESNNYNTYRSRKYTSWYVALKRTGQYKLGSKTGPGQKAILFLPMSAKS
Assay: FGF2 binders on small-molecule microarrays, primary screen, biochemical, small-molecule microarray, 635/667 nm fluorescence (AID 1133)
Details: small-molecule microarray binding, FGF2, fluorescence 635/667; higher = more signal
Please provide measured composite z-score for the entries that follow.
Please give the numeric answer without any surrounding text.

Give composite z-score (Fibroblast growth factor 2 (Homo sapiens) (UniProt P09038)) of the following compound: C=CCC(OC(C)=O)[C@@H]1[C@@H](N(Cc2ccc(-c3ccccc3)cc2)C(=O)c2ccc(-c3ccccc3)cc2)c2cc(OCCCO)ccc2N1C(=O)c1ccc(-c2ccccc2)cc1 (some centres undefined) -0.215

Give composite z-score (Fibroblast growth factor 2 (Homo sapiens) (UniProt P09038)) of the following compound: `C=C(C(=O)CC[C@@H](OC(C)=O)c1ccccc1OCCO)C(C)C` 0.398

Give composite z-score (Fibroblast growth factor 2 (Homo sapiens) (UniProt P09038)) of the following compound: `CCOC(=O)C[C@H]1[C@H](OC(=O)c2cc3ccccc3oc2=O)[C@@H](NC(=O)c2ccccc2)c2cc(OCCCO)ccc2N1C(=O)Cc1ccc(OC)cc1` 0.948

Give composite z-score (Fibroblast growth factor 2 (Homo sapiens) (UniProt P09038)) of the following compound: `O=C(N1CCCCC1)[C@@]1(Cc2ccccc2)N=C(c2ccc(OCCCO)cc2)O[C@H]1c1ccccc1` -0.12

----------
Test: basal RPMI8226 mitochondrial membrane potential changes, profiling panel, cell-based, JC-1 fluorescence, 24 h, 100 nL compound (AID 1169); further: test concentration not given here
Settings: RPMI8226 myeloma, JC-1 mitochondrial potential fluorescence, higher = more signal
Using z-score as the sorting value, the categories are b0: < -0.5; b1: ≥ -0.5 and < 0.1; b2: ≥ 0.1

Exercise: read the entry `COc1ccc([Si](C)(C)[C@@H]2[C@@H](CC(=O)N3CCC[C@H]3CO)O[C@]3(C(=O)N(Cc4ccc(I)cc4)c4ccccc43)[C@H]2C)cc1` and state which class it falls under. b0

Exercise: read the entry `COCCOC(=O)N1C(=O)[C@@]2(c3cc(C#CC4(O)CCCCCC4)ccc31)[C@H](c1ccccc1OCCO)N1[C@H](c3ccccc3)[C@H](c3ccccc3)OC(=O)[C@H]1[C@@H]2C(=O)Nc1nc2ccccc2s1` and state which class it falls under. b0

Exercise: read the entry `Cc1ccc(S[C@]2(C(=O)NCC(C)C)CC(=O)N(C(C)C)[C@@H]2c2ccc(CO)cc2)cc1` and state which class it falls under. b2

Exercise: read the entry `COC(=O)c1c(CC[C@@H](CO)NC(=O)Nc2ccc(OC)cc2)oc(C(=O)Cc2ccccc2)c1C(=O)OC` and state which class it falls under. b1

Exercise: read the entry `C=CCN1C(=O)[C@@]2(O[C@@H](CCO)[C@H]([Si](C)(C)c3ccc(OC)cc3)[C@H]2C)c2cc(N3C(=O)c4cccc5cccc3c45)ccc21` and state which class it falls under. b0

Exercise: read the entry `C=C(COC)C(=O)CC[C@H](OC(=O)c1ccccc1-c1ccccc1C(=O)O)c1ccccc1OCCO` and state which class it falls under. b1

Exercise: read the entry `C=C(COC)C(=O)CC[C@@H](OC(=O)c1ccccc1-c1ccccc1C(=O)O)c1cccc(OCCO)c1` and state which class it falls under. b1

Exercise: read the entry `CN(C)CCCC[C@@H]1NC(=O)[C@@H]2C[C@H](C(=O)NCCCCCNC(=O)CS)[C@H](c3cccc(OCCO)c3)N2C1=O` and state which class it falls under. b2

Exercise: read the entry C=C1C=C(Br)C2(OCCCO2)[C@H]2OC12 (stereo not given in full) and state which class it falls under. b2

Exercise: read the entry `C=C(COC)/C(=C/C[C@H](OC(C)=O)c1cccc(OCCO)c1)c1cc(C(=O)OC)ccc1OC` and state which class it falls under. b1

Exercise: read the entry `COCCOC(=O)N1C(=O)[C@@]2(c3cc(C#CC4(O)CCCCCC4)ccc31)[C@H](c1ccc(O)cc1)N1[C@H](c3ccccc3)[C@H](c3ccccc3)OC(=O)[C@H]1[C@@H]2C(N)=O` and state which class it falls under. b0

Exercise: read the entry CC(C)N1CC=CC23O[C@@H]4/C=C\CCCOC(=O)C4[C@H]2C(=O)N(CCCO)[C@@H]3C1=O (stereo not given in full) and state which class it falls under. b2

Exercise: read the entry `O=C(NCC(F)(F)F)[C@@H]1c2ccccc2C(=O)N(C2Cc3ccccc3C2)[C@H]1c1ccc(CO)cc1` and state which class it falls under. b1

Exercise: read the entry `Cc1ccc(N2C(=O)c3ccccc3[C@](C)(C(=O)NC3CC3)[C@@H]2c2ccc(CO)cc2)nc1` and state which class it falls under. b2
